Test: protein stability index of a GFP-peptide fusion (yeast GPS) (PSI 1-4); higher = more stable; sorted into four equal gates, so the index is relative within each strain
Details: ubr1∆
measured_attribute: protein stability index
Please give only the number in your answer, with no unit.

| sequence | measured_attribute | reading |
| --- | --- | --- |
| QAGVTKASVTIVFDNTD [SMC2] | protein stability index | 3.09 |
| AAGANVDNVWADVYAKA [RPP1B] | protein stability index | 2.96 |
| LDDEKIFSQTTNSTYNP [YJL039C/NUP192] | protein stability index | 3.08 |

Name the reported protein stability index value associated with the sequence LRLRGGIIEPSLKALAS [RPL40A]
3.02

----------
Assay: protein stability index of a GFP-peptide fusion (yeast GPS) (PSI 1-4); higher = more stable; sorted into four equal gates, so the index is relative within each strain
Details: pdr5∆
Label 1.0 when protein stability index is at or above 3; anything below gets 0.0.

# example entries with known answers
| sequence | group |
| --- | --- |
| VKVARLAGKYIPNLTAK [FAS1] | 0.0 |
| ALCKNRKCQFRTPDSIS [POP1] | 0.0 |
| YPFVTNDDIEWMLSICV [YJR042W/NUP85] | 0.0 |
| SSTPKFTKKPVTPNDKI [SIR4] | 0.0 |
| RAAKLAAPENEKPAPVR [RPS15] | 1.0 |

Continue with the next sequence.
Is it the case that ELEEQESESERKYDLFQ [SMC2] has protein stability index reaching or exceeding 3?
1.0

----------
Below, each entry is listed alongside its reported protein stability index.
Experiment: protein stability index of a GFP-peptide fusion (yeast GPS) (PSI 1-4); higher = more stable; sorted into four equal gates, so the index is relative within each strain
Settings: san1∆
No unit in the answer, only the number.

Requested field: protein stability index. Item: IRSSSVSLVAEATSNTN [MED4]
2.12

May I ask what protein stability index has been recorded for PLHSGKTSLMDLLVIDS [SNU114] ?
2.81

GET /values?readout=protein stability index&item= SLTAEAMTAAEHGLHAP [CYT1]
2.94

Give the measured protein stability index of FTPEEEAAIRRENEWAE [SKP1] .
3.34

Data request, read-out protein stability index, for DMDPLAVSAASVVSMSN [SIR2]
1.71

Report protein stability index for PSFTFGGSTTNNTTTTS [YOR098C/NUP1] please.
3.08

----------
Experiment: protein stability index of a GFP-peptide fusion (yeast GPS) (PSI 1-4); higher = more stable; sorted into four equal gates, so the index is relative within each strain
Conditions: pdr5∆
Below, each of the sequences is paired with its reported protein stability index value.
Returns: the value as a bare number; no unit string appended.

Any idea what its protein stability index is? The sequence is RYLVGGNKIQKVLLDSK [RPS7A]
2.01

Requested read-out: protein stability index. Entry: VIVTDPRLDAQAIKEAS [RPS0B]
3.1

Consider the sequence LDKDRKALIQRKGGKLE [RPL26A] and give its measured protein stability index.
3.5

Suppose we examine the sequence LPDGKNGNLEEEFAYVD [MED6] ; what protein stability index value has been reported?
3.44

Tell me the measured protein stability index of LPTNPTLDKPNAEATKE [CSE2] , please.
2.87

----------
Experiment: protein stability index of a GFP-peptide fusion (yeast GPS) (PSI 1-4); higher = more stable; sorted into four equal gates, so the index is relative within each strain
Conditions: san1∆
measured_attribute: protein stability index
The response must contain the number and no unit.

| sequence | reading |
| --- | --- |
| ISPLMKSQYNMVLRNVM [SRB8] | 2.79 |

Name the reported protein stability index value associated with the sequence LETDGVNLSEVMTVPGI [RPO21]
3.03

Requested field: protein stability index. Item: AGGQRIVDDYWESLAKK [SWP82]
2.45

Would you kindly share the measured protein stability index for GVCNHAFHLHCINKWIK [HRT1] ?
1.64

Look up protein stability index: TEIISTLSNGLIASHYG [BRR2]
2.42

Looking for the measured protein stability index of WRKDAQGNYPTTSYIKE [DPB4] , can you help?
2.92

For the sequence shown here, PQDLTFNAGSNPPSYQS [RPB7] , give the reported protein stability index.
3.1

Given the entry PHIIAVACLFITISIHG [SSN8] , report its measured protein stability index.
1.34

Entry NDLHHSEKKYAEEDQVQ [RPN3] : reported protein stability index = ?
2.99

Would you mind telling me what protein stability index value was observed for SNVNSDIYFKLKKLEKE [RPT3] ?
2.93

Data request, read-out protein stability index, for GTSTTHGSISPQEESVS [SIR3]
2.43

What does the data say about its protein stability index? Entry: LSSIAERVRNFAVIYLC [DIB1]
1.71

----------
Test: protein stability index of a GFP-peptide fusion (yeast GPS) (PSI 1-4); higher = more stable; sorted into four equal gates, so the index is relative within each strain
Settings: san1∆
Assign criterion met whenever protein stability index does not fall below 2; assign criterion not met whenever it does.

| sequence | group |
| --- | --- |
| KPALKVSKEGLYQLVDI [YMR129W/POM152] | criterion met |
| DVFTINPHQKDQLIISS [YML103C/NUP188] | criterion not met |
| THQSPPPPPQQSQPIAN [SNF5] | criterion met |
| NPIHVSRHFASYANLPG [FAS1] | criterion not met |
| GFFENIETEFLLFTVKL [IRR1] | criterion met |

Has NNSTSNANTVFSERAAM [SWI1] a recorded protein stability index greater than or equal to 2?
criterion met

Determine whether measured protein stability index meets or exceeds 2 for YYQRLRHMVDDKIHARA [RPB2]
criterion met

Evaluate AELDDCRGVSENVILGQ [RPO21] : protein stability index at minimum 2?
criterion met

Textbook exercise: given the entry SDDIISQVDPITLFVLV [FAS2] , state whether its protein stability index is greater than or equal to 2.
criterion not met

Does the reported protein stability index for ANVIKALAFCEIGITQQ [RRP4] fall at or above the 2 mark?
criterion not met

----------
Assay: protein stability index of a GFP-peptide fusion (yeast GPS) (PSI 1-4); higher = more stable; sorted into four equal gates, so the index is relative within each strain
Settings: san1∆
measured_attribute: protein stability index
# print the numeric value only

So what does the record say about protein stability index for QGRFRGNLSGKRVDFSG [RPO31] ?
2.76

// returns reported protein stability index for input KDYEAKTKAMSLSIEEN [POP1]
2.28

For LLKKELLTIEPKLKEAT [SMC2] , what is its reported protein stability index?
3.11

So what does the record say about protein stability index for IDIPLDEQAFYNKDKAE [RPC37] ?
2.85

Requested field: protein stability index. Item: PEVSMIRDIREKELKIF [RPB2]
3.38

Would you kindly share the measured protein stability index for AKSDETKQASSFSFLNR [YLR335W/NUP2] ?
3.26

Would you mind telling me what protein stability index value was observed for GKIPTLKISLIQIFRAH [PRP8] ?
1.33

Give the measured protein stability index of RAIDSLIQKGYLQRGDD [CDC53] .
2.17

----------
Assay: protein stability index of a GFP-peptide fusion (yeast GPS) (PSI 1-4); higher = more stable; sorted into four equal gates, so the index is relative within each strain
Details: san1∆
Listed sequences paired with reported protein stability index
Respond numerically, and do not add a unit to the figure.

Answered examples (2):
| sequence | protein stability index |
| --- | --- |
| KQVQISHHLKADTIDHD [YGL172W/NUP49] | 2.79 |
| DEEAAGASTVMKTKTIN [PRP8] | 3.28 |

# evaluate next
Looking for the measured protein stability index of TLTELKDALSNSILSVR [SRB2] , can you help?
3.21

----------
Measured protein stability index accompanies every entry in the list below.
Assay: protein stability index of a GFP-peptide fusion (yeast GPS) (PSI 1-4); higher = more stable; sorted into four equal gates, so the index is relative within each strain
Conditions: pdr5∆
Form rule: numeric answer, no unit written next to it.

Below, 2 sequences whose answers are already recorded.
| sequence | protein stability index |
| --- | --- |
| FLKEKDTVAELQAQLDY [FAS2] | 3.07 |
| TPSFSFGKTTANLPANS [YLR335W/NUP2] | 2.96 |

Would you mind telling me what protein stability index value was observed for KDQRATTPYMTKYERAR [RPO26] ?
3.01

Query (sequence): INSPMPQQAQMQQAQFQ [SNF2] ; field requested: protein stability index
2.98

Could you share which protein stability index value was measured for LKFFLVDENETVLESLG [LIN1] ?
2.94

# lookup: protein stability index of LKLGLVEYLDVNEENDS [RET1]
3.08

protein stability index lookup needed for QPVNPKPFLKGLVNHRV [SMX3] , thanks.
3.09

So what does the record say about protein stability index for IKLSLKDKTKNISAEII [SMC4] ?
3.09
